tested on: antibodies isolated from the serum of the first bleed of the rabbit; experiment: affinity column binding of 14C-labeled analytes from aqueous solution; conditions: 14C-labeled analogs, test of non-specific binding
Readout: binding by the affinity column

Answered cases to consult:
Molecule: CC(C)N(C(=O)CCl)c1ccccc1
Readout: binding by the affinity column
Reported: not

Molecule: CCc1cccc(CC)c1N(COC)C(=O)CSCC(NC(C)=O)C(=O)O (stereo not drawn) [mercapturate analog]
Readout: binding by the affinity column
Reported: not

Molecule: CCCCOCN(C(=O)CCl)c1c(CC)cccc1CC
Readout: binding by the affinity column
Reported: bound

Molecule: CCc1cccc(C)c1N(C(=O)CCl)C(C)COC (stereo not drawn)
Readout: binding by the affinity column
Reported: not

Here is the next item to consider.
Q: Name the reported binding by the affinity column value associated with the molecule CCOCN(C(=O)CCl)c1c(C)cccc1CC
Ans: bound
